- EXPERIMENTAL_DETAILS: Inhibition of NAD-dependent LigA in AcrABTolC deficient Haemophilus influenzae HIN101 after 20 mins by FRET assay
API: label(entry) gives Criterion met if the entry's IC50 is strictly smaller than 400 nM; on equality or larger values it gives Criterion not met.

INSERT INTO results (compound, category) VALUES
  ('Nc1nc(OC2CCCC2)nc2c1ncn2[C@@H]1O[C@H](CO)[C@@H](F)[C@H]1O', 'Criterion met');

Next item in the queue.
In the record for C[C@H]1O[C@@H](n2cnc3c(N)nc(OCC45CC6CC(CC(C6)C4)C5)nc32)[C@H](O)[C@@H]1O , is IC50 less than 400 nM?
Criterion not met

---

- EXPERIMENTAL_DETAILS: Inhibition of NAD-dependent LigA in Streptococcus pneumoniae SPN100 after 20 mins by FRET assay
pIC50: −log10 of the molar value.
# label = true (1) if pIC50 >= 7 else false (0)

INSERT INTO results (molecule, category) VALUES
  ('Nc1nc(OC2CCC3CCCCC3C2)nc2c1ncn2C1CCCO1 (stereo not drawn)', 'true (1)'),
  ('Nc1nc(OC2CCC3CCCC3C2)nc2c1ncn2C1CCCO1 (stereo not drawn)', 'false (0)'),
  ('C[C@H]1O[C@@H](n2cnc3c(N)nc(OC4CCC5CCCCC5C4)nc32)[C@H](O)[C@@H]1O (stereo partly drawn)', 'true (1)'),
  ('C[C@H]1O[C@@H](n2cnc3c(N)nc(OC4CCCC4)nc32)[C@H](O)[C@@H]1CC1CCCCC1', 'false (0)'),
  ('C[C@H]1O[C@@H](n2cnc3c(N)nc(OCC45CC6CC(CC(C6)C4)C5)nc32)[C@H](O)[C@@H]1O', 'false (0)');

From here, focus on the item given below.
Given the entry C[C@H]1O[C@@H](n2cnc3c(N)nc(OC4CCCC4)nc32)[C@H](O)[C@@H]1Oc1ccccc1 , answer whether its pIC50 meets or surpasses 7.
true (1)

---

- EXPERIMENTAL_DETAILS: Inhibition of NAD-dependent LigA in AcrABTolC deficient Haemophilus influenzae HIN101 after 20 mins by FRET assay
Listed compounds paired with reported pIC50
# pIC50 = -log10(concentration in molar units)

INSERT INTO results (compound, reported_measurement) VALUES
  ('Nc1nc(OC2CCC3CCCCC3C2)nc2c1ncn2C1CCCO1 (centres undefined)', 6.07),
  ('C[C@H]1O[C@@H](n2cnc3c(N)nc(OC4CCC5CCCCC5C4)nc32)[C@H](O)[C@@H]1O (some centres undefined)', 6.59),
  ('C[C@H]1O[C@@H](n2cnc3c(N)nc(OC4CCCC4)nc32)[C@H](O)[C@@H]1Oc1ccccc1', 5.89);

Documented pIC50 of Nc1nc(OC2CCC3CCCCC3C2)nc2c1ncn2[C@@H]1O[C@H](CO)[C@@H](O)[C@H]1O (some centres undefined) : 6.40
